MEASURED PARAMETER: melting point

Reference set (4 entries):
| COMPOUND | melting point |
| --- | --- |
| CN1CCN(C(=O)COc2cccc(CCNS(=O)(=O)c3ccc(Cl)cc3)c2)CC1 | 139 to 141 °C |
| O=C(O)CCCCCC1=CCCC1=O | 70 to 72 °C |
| CCOc1nccc(C(=O)OC)c1N | 59 to 60.5 °C |
| O=C(c1ccc[nH]1)C1CCCCC1 | 83 to 84 °C |

## Task Provide only the value of recorded melting point for CC(C)(C)c1nc(C(=O)c2cc[nH]n2)nc(C(C)(C)C)c1O
## Result 156 to 161 °C

## Task Provide only the value of recorded melting point for C=C=Cc1c(C)nc2c(OCc3ccccc3C)cccn12
## Result 88 to 89 °C

## Task Provide only the value of recorded melting point for COC(=O)Nc1cc(C(C)(C)C)cc(NC(=O)Nc2ccc(-c3ccc(CN4CCOCC4)nc3)c3ccccc23)c1OC
## Result 192 to 193 °C

## Task Provide only the value of recorded melting point for CSC1=N[C@@H](c2ccccc2)[C@H](c2ccccc2)N1 (relative stereo)
## Result 132 to 134 °C

###

# maps each entry to its melting point

Reference set (3 entries):
| MOLECULE | melting point |
| --- | --- |
| Cc1nc(C=O)c(C)[nH]1 | 164 to 166 °C |
| COc1ccc(Cc2sccc2OC2OC(CO)C(O)C(O)C2O)cc1 (stereo unspecified) | 154 to 155 °C |
| CC(=O)N1C2=NC(C)(C)N(C)C(=O)N2c2ccccc21 | 159 to 162 °C |

## Task Provide only the value of recorded melting point for [N-]=[N+]=NCCCn1cnc(-c2ccc(F)cc2)c1-c1ccncc1
## Result 64 to 65 °C

## Task Provide only the value of recorded melting point for O=C(Nc1ccc(Br)cc1)C(=O)N1CCC(Cc2ccc(F)cc2)CC1
## Result 156 to 158 °C

## Task Provide only the value of recorded melting point for [N-]=[N+]=Cc1ccc([N+](=O)[O-])cc1
## Result 80 to 82 °C

###

# maps each entry to its melting point

| COMPOUND | MEASURED PARAMETER | REPORTED |
| --- | --- | --- |
| O=C(O)c1cccc(-n2c(=O)c3c(Cc4ccccc4)n[nH]c3c3cccnc32)c1 | melting point | 300 to 305 °C |
| Cc1cc(C)c(C(=O)c2ccccc2)c(OCC(O)CNC(C)C)c1C (configuration not stated) | melting point | 121 to 123 °C |
| O=C(O)C1CCN(Cc2cc(Br)cc3[nH]c(=O)c(=O)[nH]c23)CC1 | melting point | > 300 °C |

## Task Provide only the value of recorded melting point for Nc1nc(Nc2ccc(SC3(Cl)C=CC(C(F)(F)F)=CN3)cc2)sc1C(=O)c1c(Cl)cc(C(F)(F)F)cc1Cl (configuration not stated)
## Result 130 to 132 °C

## Task Provide only the value of recorded melting point for NC1=CC(=O)C(N)=C(CCCCCC2=C(N)C(=O)C=C(N)C2=O)C1=O
## Result > 250 °C

## Task Provide only the value of recorded melting point for COc1cc2c(cc1OC)C(C(c1ccccc1)N1CCCCC1)OC2=O (configuration not stated)
## Result 213 to 214 °C

## Task Provide only the value of recorded melting point for COC(=O)C(Cc1ccccc1)NC(=S)Nc1nc(C)cs1 (racemic)
## Result 131 to 132 °C

## Task Provide only the value of recorded melting point for CC(=O)N1CCN(C(=O)Cn2c(-c3ccc(Cl)cc3)nc3cccnc32)CC1
## Result 217 to 219 °C

## Task Provide only the value of recorded melting point for Nc1c(-c2ccccc2)c(=O)[nH]c2cc(Cl)ccc12
## Result 337 to 338 °C

## Task Provide only the value of recorded melting point for COc1cc(CO)c(OC)c(CCl)c1
## Result 48 to 50 °C

## Task Provide only the value of recorded melting point for CCCc1cn2ccccc2c1C(=O)c1ccc(O)cc1
## Result 210 to 214 °C

## Task Provide only the value of recorded melting point for CNS(=O)(=O)c1ccsc1C(=O)OC
## Result 115 to 122 °C

## Task Provide only the value of recorded melting point for COC(=O)c1cc([N+](=O)[O-])c(Oc2cc(C)cc(C)c2)c(S(N)(=O)=O)c1
## Result 197 to 198 °C

## Task Provide only the value of recorded melting point for CC1(C2N=NC(=O)O2)CC1 (configuration not stated)
## Result 68 to 70 °C

## Task Provide only the value of recorded melting point for CCOC(=O)C(CC#N)(C(=O)OCC)c1ccc([N+](=O)[O-])cn1
## Result 66 to 68 °C

## Task Provide only the value of recorded melting point for N#Cc1ccc(NC(=O)c2cc(-c3ccc(F)cc3F)ccc2O)cc1
## Result 189 to 190 °C

## Task Provide only the value of recorded melting point for O=C1c2c(O)ccc(O)c2C(=O)c2c(NCCN3CCCC3)ccc(NCCN3CCCC3)c21
## Result 193 to 196 °C

###

# maps each entry to its melting point

Reference set (5 entries):
| COMPOUND | melting point |
| --- | --- |
| CCCc1ccc2c(c1CCC(=O)O)CCC(NS(=O)(=O)c1ccc(Cl)cc1)C2 (stereo not given) | 165 to 167 °C |
| COc1c(N)nc(Cl)nc1Cl | 155 to 156 °C |
| O=C(O)C1CC(c2ccccc2)=NN1 (stereo not given) | 180 to 182 °C |
| COc1ccc(-c2csc(Nc3cnccn3)n2)cc1OC | 205 to 207 °C |
| COc1ccc(O[C@@H]2COc3ccc(-c4ccc5cc(F)ccc5n4)cc3[C@@H]2O)cc1 (relative stereo) | 151 to 154 °C |

## Task Provide only the value of recorded melting point for CC(=O)CCCn1c(=O)c2c(ncn2C)n(C)c1=O
## Result 109 to 111 °C

## Task Provide only the value of recorded melting point for COC(=O)C(=C(C)O)N1C(=O)C(N2C(=O)c3ccccc3C2=O)C1SC(C)=O (stereo not given)
## Result 178 to 183 °C

## Task Provide only the value of recorded melting point for CCCCOCCOc1ccc(-c2ccc3c(c2)C=C(C(=O)OC)CCN3c2ccc(S(=O)(=O)NC)cc2)cc1
## Result 142 to 146 °C

## Task Provide only the value of recorded melting point for O=c1ccn(CCOCCO)c(C(O)c2ccccc2)c1OCc1ccccc1 (stereo not given)
## Result 157 to 159 °C

## Task Provide only the value of recorded melting point for NC(=O)c1cc(-c2ccc(Cl)cc2)n(-c2ccc(S(N)(=O)=O)cc2)n1
## Result 108 to 110 °C

###

# maps each entry to its melting point

| MOLECULE | melting point |
| --- | --- |
| CC(C(=O)NC1CC(C(=O)O)Nc2cc(Cl)cc(Cl)c21)c1ccccc1 (centres undefined) | 210 to 212 °C |
| NC(=O)C1(Nc2ccccc2)CCN(C2CCC(c3ccc(F)cc3)(c3ccc(F)cc3)CC2)CC1 | 224 to 227 °C |
| Cc1ccc(-c2c(Cl)nc(-c3ccccc3)nc2NS(=O)(=O)c2ccc(C(C)(C)C)cc2)cc1 | 249 to 250 °C |

## Task Provide only the value of recorded melting point for CCOC(=O)C(=C(c1ccc(F)cc1)c1ccc(F)cc1)c1nnn(CC)n1
## Result 113 to 114 °C

###

# maps each entry to its melting point

Reference set (10 entries):
| COMPOUND | melting point |
| --- | --- |
| CC1CCN(CC(=O)N2c3ccccc3N(C)S(=O)(=O)c3ccccc32)CC1 | 159 to 160 °C |
| COc1cc(OC)c2c(=O)[nH]c(-c3cc(C)cc(OCCO)c3)nc2c1 | 107 to 109 °C |
| Nc1nnc(-c2ccc3occ(-c4cccc(OC(F)(F)F)c4)c3c2)o1 | 182 to 183 °C |
| Cc1cc(C)n(-c2nc(Nc3ccccn3)c3ccccc3n2)n1 | 126 to 127 °C |
| CCCCN(CCCC)CCCOc1ccc(S(=O)(=O)c2c(C(C)(C)C)cn3ccccc23)cc1 | 90 to 92 °C |
| Cc1cc(OCCN2CCOCC2)nn1-c1ccc2c(O)cccc2c1 | < 70 °C |
| CCCC[C@H](C)CC(=O)N[C@H](CCC(=O)N[C@@H](C)C(=O)N[C@H](C)C(=O)O)C(=O)O | 165 to 168 °C |
| CC(CC(Sc1cc(C(C)(C)C)c(O)c(C(C)(C)C)c1)Sc1cc(C(C)(C)C)c(O)c(C(C)(C)C)c1)Sc1cc(C(C)(C)C)c(O)c(C(C)(C)C)c1 (centres undefined) | 125 to 126 °C |
| CC(C)Cn1c(C(C)(C)O)nc2c(N)nc3ccccc3c21 | 214 to 217 °C |
| Clc1ccc2c(NCCN3CCCCC3)ccnc2c1 | 148 to 151 °C |

## Task Provide only the value of recorded melting point for O=C(O)CCC(=O)c1cccc(C(F)(F)F)c1
## Result 80 to 82 °C

## Task Provide only the value of recorded melting point for CC1(C)CC(=O)C(C(=O)c2ccc(S(C)(=O)=O)cc2[N+](=O)[O-])C(=O)C1
## Result 156 to 158 °C

## Task Provide only the value of recorded melting point for Cc1ccc(C)c(C(=O)NCC23CC4CC(CC(Cl)(C4)C2)C3)c1
## Result 155 °C

## Task Provide only the value of recorded melting point for Cc1cc(O)cc(O)c1C(=O)NNC(=O)C(O)c1ccccc1 (centres undefined)
## Result 188 to 189 °C

## Task Provide only the value of recorded melting point for CCOC(=O)Nc1cc(O)c(Cl)cc1F
## Result 152 to 154 °C

## Task Provide only the value of recorded melting point for Cc1nc2cccc(OCC=CCN3CCN(C4c5ccccc5CCc5ccccc54)CC3)c2s1
## Result 114 °C
